test: recombinant UMI read abundance after kanamycin selection (control-corrected) (log10(CPM+1)); higher = more efficient recombination; extreme values may be limits of the assay; sequences stand for … in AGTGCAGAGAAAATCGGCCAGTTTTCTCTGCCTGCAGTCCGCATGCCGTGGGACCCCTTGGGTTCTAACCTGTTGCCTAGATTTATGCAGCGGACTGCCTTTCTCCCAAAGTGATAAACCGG…AGGTTGGTTTCACT; site = the 11-nt donor;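 note: IS621 bridge recombinase in Escherichia coli cells against a fixed T5 target plasmid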
Binning scheme for recombinant UMI read abundance (log10): interval 1 = under 0.005, interval 2 = from 0.005 up to 1, interval 3 = 1 and over

-- ask State the band of ACAGTATCATGGACCGGTTTTCCCGGTAATCCGTATTTGAC (site ACAGTATCTTG)
-- reply interval 3

-- ask State the band of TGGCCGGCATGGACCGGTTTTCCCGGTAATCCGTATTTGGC (site TGGACGGCTGC)
-- reply interval 1

-- ask State the band of CGGGAGACATGGACCGGTTTTCCCGGTAATCCGTATTTGCC (site CGGGAGGCTGG)
-- reply interval 3

-- ask State the band of TAGTAAGCATGGACCGGTTTTCCCGGTAATCCGTATTTGTA (site TAGTAAGCTTA)
-- reply interval 3

-- ask State the band of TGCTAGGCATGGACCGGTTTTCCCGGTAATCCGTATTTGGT (site TGCTAGTCTAC)
-- reply interval 2

-- ask State the band of AACGGGACATGGACCGGTTTTCCCGGTAATCCGTATTTGAT (site AACGGGACTAT)
-- reply interval 3

-- ask State the band of GGTTCATCATGGACCGGTTTTCCCGGTAATCCGTATTTGCT (site CGATCATCTAG)
-- reply interval 1

-- ask State the band of TCCCCTTCATGGACCGGTTTTCCCGGTAATCCGTATTTGAG (site TCCCCTTCTCT)
-- reply interval 1

-- ask State the band of AGAAAGGCATGGACCGGTTTTCCCGGTAATCCGTATTTGCT (site AGAAGGGCTAG)
-- reply interval 2

-- ask State the band of CATTCCTCATGGACCGGTTTTCCCGGTAATCCGTATTTGCC (site CACTCCTCTGG)
-- reply interval 3

-- ask State the band of TCAAGTCCATGGACCGGTTTTCCCGGTAATCCGTATTTGTA (site TGAAGTCCTTA)
-- reply interval 2

-- ask State the band of CGGGAACCATGGACCGGTTTTCCCGGTAATCCGTATTTGAG (site CGGGAACCTTT)
-- reply interval 1

-- ask State the band of TCAGAGACATGGACCGGTTTTCCCGGTAATCCGTATTTGCT (site TCAGAGACTCG)
-- reply interval 2

-- ask State the band of TTAGCTGCATGGACCGGTTTTCCCGGTAATCCGTATTTGTA (site TTAGCTGCTTA)
-- reply interval 3

-- ask State the band of CGTTAGACATGGACCGGTTTTCCCGGTAATCCGTATTTGAA (site CGTTAGACTAT)
-- reply interval 2

-- ask State the band of GGGCCGTCATGGACCGGTTTTCCCGGTAATCCGTATTTGTA (site GGGCCGTCTTA)
-- reply interval 2

-- ask State the band of ATCGACTCATGGACCGGTTTTCCCGGTAATCCGTATTTGAG (site ATCGACTCTCT)
-- reply interval 3

-- ask State the band of CGATCCTCATGGACCGGTTTTCCCGGTAATCCGTATTTGCG (site CGATCCTCTCG)
-- reply interval 3

-- ask State the band of CAAGTCCCATGGACCGGTTTTCCCGGTAATCCGTATTTGCT (site CAAATCCCTAG)
-- reply interval 1

-- ask State the band of TAGGAATCATGGACCGGTTTTCCCGGTAATCCGTATTTGCT (site TAGGAATCTGG)
-- reply interval 3

-- ask State the band of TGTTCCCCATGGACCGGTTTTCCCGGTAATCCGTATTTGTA (site TGTGCCCCTTA)
-- reply interval 2

-- ask State the band of CTCGTATCATGGACCGGTTTTCCCGGTAATCCGTATTTGTC (site CTAGTATCTGT)
-- reply interval 1

-- ask State the band of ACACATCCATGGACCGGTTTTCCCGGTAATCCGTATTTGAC (site AGACATCCTGT)
-- reply interval 1

-- ask State the band of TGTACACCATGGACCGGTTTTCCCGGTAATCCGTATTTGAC (site TGTAAACCTGT)
-- reply interval 1

-- ask State the band of AATGGAACATGGACCGGTTTTCCCGGTAATCCGTATTTGCT (site AATGGAACTAG)
-- reply interval 3

-- ask State the band of CAAGAGTCATGGACCGGTTTTCCCGGTAATCCGTATTTGGT (site CAAGAGTCTAC)
-- reply interval 3

-- ask State the band of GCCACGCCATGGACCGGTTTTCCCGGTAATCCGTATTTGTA (site GCCACCCCTTA)
-- reply interval 2

-- ask State the band of GCTACGGCATGGACCGGTTTTCCCGGTAATCCGTATTTGCC (site GCTACGGCTGG)
-- reply interval 2

-- ask State the band of CGTTCGGCATGGACCGGTTTTCCCGGTAATCCGTATTTGTC (site CGTTCGGCTGA)
-- reply interval 1

-- ask State the band of CAGTCGACATGGACCGGTTTTCCCGGTAATCCGTATTTGAG (site CAGTCGACTCT)
-- reply interval 2

-- ask State the band of CCGATTACATGGACCGGTTTTCCCGGTAATCCGTATTTGCT (site CCGGTTACTAG)
-- reply interval 1
